- systemUnderTest: Gal(a1-4)Gal(b1-4)GlcNAc(b1-3)Gal(b1-4)Glc
- assayComment: glycan array binding signal (z-score within array); higher = stronger binding
- assaySetup: glycan notation: IUPAC condensed, linker removed
About 410 targets per protein were measured; listed, in parts, are those with the strongest signals and a random draw of the rest.
parameterMeasured: glycan array binding signal (z-score)

- Mincle (Bos taurus) (protein) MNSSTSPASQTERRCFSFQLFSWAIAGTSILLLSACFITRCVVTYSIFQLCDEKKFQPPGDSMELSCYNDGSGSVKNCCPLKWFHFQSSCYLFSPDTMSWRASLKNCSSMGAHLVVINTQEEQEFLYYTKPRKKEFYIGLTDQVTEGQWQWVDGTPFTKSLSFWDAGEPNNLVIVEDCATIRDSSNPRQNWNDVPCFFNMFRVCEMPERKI: -0.763
- Si Bti9 1b-HA (Solanum lycopersicum) (protein) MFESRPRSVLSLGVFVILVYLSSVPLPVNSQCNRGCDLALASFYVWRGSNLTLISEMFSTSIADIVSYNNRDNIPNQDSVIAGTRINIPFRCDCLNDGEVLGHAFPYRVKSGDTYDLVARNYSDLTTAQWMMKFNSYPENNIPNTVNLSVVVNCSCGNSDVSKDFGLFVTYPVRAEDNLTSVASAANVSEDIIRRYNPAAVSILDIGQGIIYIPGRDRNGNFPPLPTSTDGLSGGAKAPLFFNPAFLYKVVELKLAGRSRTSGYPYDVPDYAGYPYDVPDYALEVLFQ: -0.274
- Morniga (Morus nigra) (protein) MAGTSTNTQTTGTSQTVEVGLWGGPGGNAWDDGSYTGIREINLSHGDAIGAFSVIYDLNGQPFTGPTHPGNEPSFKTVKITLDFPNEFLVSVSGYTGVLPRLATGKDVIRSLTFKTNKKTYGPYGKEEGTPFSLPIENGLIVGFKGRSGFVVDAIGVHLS: -0.341
